System Tested: human NaV1.6 (hNaV1.6) (Homo sapiens (Human), UniProt Q9UQD0)
Sequence (Q9UQD0 whole entry): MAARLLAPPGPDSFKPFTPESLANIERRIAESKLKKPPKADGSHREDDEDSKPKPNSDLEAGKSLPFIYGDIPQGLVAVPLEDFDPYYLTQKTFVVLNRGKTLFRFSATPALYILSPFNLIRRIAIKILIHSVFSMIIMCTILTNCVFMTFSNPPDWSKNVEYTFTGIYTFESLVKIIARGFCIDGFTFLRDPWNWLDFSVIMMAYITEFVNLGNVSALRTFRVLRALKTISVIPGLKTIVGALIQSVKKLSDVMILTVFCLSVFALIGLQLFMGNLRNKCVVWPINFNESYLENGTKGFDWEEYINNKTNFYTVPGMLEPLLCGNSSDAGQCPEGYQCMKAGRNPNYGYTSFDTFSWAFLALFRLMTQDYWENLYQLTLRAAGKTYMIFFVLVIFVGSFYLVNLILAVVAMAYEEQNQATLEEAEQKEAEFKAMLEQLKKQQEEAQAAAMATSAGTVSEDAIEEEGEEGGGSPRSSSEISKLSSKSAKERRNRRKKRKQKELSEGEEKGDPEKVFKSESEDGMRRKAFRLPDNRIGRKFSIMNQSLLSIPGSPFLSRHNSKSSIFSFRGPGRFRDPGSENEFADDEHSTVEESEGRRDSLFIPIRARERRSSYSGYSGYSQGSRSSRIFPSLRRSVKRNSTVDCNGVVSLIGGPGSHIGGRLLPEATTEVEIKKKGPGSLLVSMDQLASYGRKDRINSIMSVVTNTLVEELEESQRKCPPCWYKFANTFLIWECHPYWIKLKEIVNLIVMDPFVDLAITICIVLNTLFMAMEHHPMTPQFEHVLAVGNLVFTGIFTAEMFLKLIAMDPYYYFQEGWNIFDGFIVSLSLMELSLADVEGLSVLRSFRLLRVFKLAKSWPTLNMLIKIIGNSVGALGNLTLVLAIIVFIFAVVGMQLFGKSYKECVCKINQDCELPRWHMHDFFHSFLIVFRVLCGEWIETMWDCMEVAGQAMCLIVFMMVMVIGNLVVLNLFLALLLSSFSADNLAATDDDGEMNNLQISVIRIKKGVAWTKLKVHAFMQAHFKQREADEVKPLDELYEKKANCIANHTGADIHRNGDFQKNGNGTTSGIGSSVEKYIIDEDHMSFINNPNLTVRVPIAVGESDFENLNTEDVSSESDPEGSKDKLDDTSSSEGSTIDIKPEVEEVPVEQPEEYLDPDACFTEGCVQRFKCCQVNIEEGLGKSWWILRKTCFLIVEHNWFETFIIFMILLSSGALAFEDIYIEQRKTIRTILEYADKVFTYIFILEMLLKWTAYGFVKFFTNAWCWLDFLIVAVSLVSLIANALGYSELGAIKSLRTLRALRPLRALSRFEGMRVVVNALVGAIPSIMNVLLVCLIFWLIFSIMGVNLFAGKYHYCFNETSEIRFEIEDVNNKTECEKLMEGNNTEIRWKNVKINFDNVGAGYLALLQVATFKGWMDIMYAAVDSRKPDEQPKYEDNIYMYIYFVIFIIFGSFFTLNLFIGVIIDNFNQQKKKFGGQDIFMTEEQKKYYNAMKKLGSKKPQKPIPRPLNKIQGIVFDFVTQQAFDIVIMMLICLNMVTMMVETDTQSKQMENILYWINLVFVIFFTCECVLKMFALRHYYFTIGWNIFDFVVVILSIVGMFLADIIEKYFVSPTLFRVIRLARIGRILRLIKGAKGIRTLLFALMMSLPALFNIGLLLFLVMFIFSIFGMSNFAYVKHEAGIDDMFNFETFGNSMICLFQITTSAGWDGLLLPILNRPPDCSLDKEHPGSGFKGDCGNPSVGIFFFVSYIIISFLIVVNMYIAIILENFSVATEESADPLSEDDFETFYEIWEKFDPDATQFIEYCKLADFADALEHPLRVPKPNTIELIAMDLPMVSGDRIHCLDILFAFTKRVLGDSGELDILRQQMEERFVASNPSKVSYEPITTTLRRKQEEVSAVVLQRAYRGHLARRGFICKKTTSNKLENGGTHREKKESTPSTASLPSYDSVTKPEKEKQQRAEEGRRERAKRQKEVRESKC
Experiment Summary: INaL inhibition at hNaV1.6, PatchXpress electrophysiology
Format: cell-based
Condition Parameters: HEK293; 1 μM; HEK-293 cells expressing hNaV1.6; late current evoked by 300 nM ATX-II; read-out: INaL v1.6 (1 μM, % Inhibition)
Give measured inhibition at 1 µM for each item. Keep answers brief.

Study these solved cases before continuing.
Molecule | Quantity | Value Reported
FC(F)c1nnc2cnc(-c3ccc(OC(F)(F)F)cc3)cn12 | inhibition at 1 µM | 30 to 70%
COc1cc(C2(C#N)CC2)ccc1-c1cn2c(C(F)(F)F)nnc2cn1 | inhibition at 1 µM | < 30%
FC(F)(F)Oc1ccc(-c2ccc3nnc(C(F)(F)F)n3n2)c(C2COC2)c1 | inhibition at 1 µM | 30 to 70%
FC(F)(F)COc1ccc(-c2ccc3nnc(C(F)(F)F)n3n2)cn1 | inhibition at 1 µM | > 70%
FC(F)(F)Oc1ccc(-c2ccc3nnc(C4(F)CC4)n3n2)cc1 | inhibition at 1 µM | > 70%
FC(F)(F)Oc1ccc(-c2cnc3nncn3c2)cc1 | inhibition at 1 µM | < 30%
FCCc1nnc2cnc(-c3ccc(OC(F)(F)F)cc3)cn12 | inhibition at 1 µM | < 30%
FC(F)(F)Oc1ccc(-c2cn3c([C@@H]4CCOC4)nnc3cn2)cc1 | inhibition at 1 µM | < 30%

Fill in inhibition at 1 µM for each of the 2 molecules listed.
1. CC(C)c1nnc2cnc(-c3ccc(OC(F)(F)F)cc3)cn12
2. N#Cc1ccc(OC(F)(F)F)cc1-c1ccc2nnc(C(F)(F)F)n2n1

1. < 30%
2. < 30%

Origin of values: patent US11629146B2
